# assay_name: Accelerated stability test (50° C.) with pH stability test of sucralose sample solution
# Assay type: physicochemical
# test_parameters: 50° C., WHIRLPAK polyethylene bags; failure = pH drop ≧1.0; Example 2, pH at crystallizer varied
quantity_measured: Days to pH Failure (Days)

OC[C@H]1O[C@H](O[C@]2(CCl)O[C@H](CCl)[C@@H](O)[C@@H]2O)[C@H](O)[C@@H](O)[C@H]1Cl [Sample 42]: 5
OC[C@H]1O[C@H](O[C@]2(CCl)O[C@H](CCl)[C@@H](O)[C@@H]2O)[C@H](O)[C@@H](O)[C@H]1Cl [Sample 36]: 5
OC[C@H]1O[C@H](O[C@]2(CCl)O[C@H](CCl)[C@@H](O)[C@@H]2O)[C@H](O)[C@@H](O)[C@H]1Cl [Sample 35]: 5

====

# assay_name: Accelerated stability test (50° C.) with pH stability test of sucralose sample solution
# Type: physicochemical
# test_parameters: sample solution vs pH-adjusted water at time zero, (−) pH drop, (+) pH gain; Example 1
quantity_measured: Initial pH difference

OC[C@H]1O[C@H](O[C@]2(CCl)O[C@H](CCl)[C@@H](O)[C@@H]2O)[C@H](O)[C@@H](O)[C@H]1Cl [Sample 10]: −0.05

a = OC[C@H]1O[C@H](O[C@]2(CCl)O[C@H](CCl)[C@@H](O)[C@@H]2O)[C@H](O)[C@@H](O)[C@H]1Cl [Sample 3]
b = OC[C@H]1O[C@H](O[C@]2(CCl)O[C@H](CCl)[C@@H](O)[C@@H]2O)[C@H](O)[C@@H](O)[C@H]1Cl [Sample 5]
Consider a and b . Which of these has its Initial pH difference at a higher number? # respond with the chosen item's label
b

====

# assay_name: Accelerated stability test (50° C.) with pH stability test of sucralose sample solution
# Assay type: physicochemical
# test_parameters: sample solution vs pH-adjusted water at time zero; Example 2, pH at crystallizer varied
quantity_measured: Initial pH difference

Here are 4 molecules together with their reported answers.
OC[C@H]1O[C@H](O[C@]2(CCl)O[C@H](CCl)[C@@H](O)[C@@H]2O)[C@H](O)[C@@H](O)[C@H]1Cl [Sample 32]: −0.90
OC[C@H]1O[C@H](O[C@]2(CCl)O[C@H](CCl)[C@@H](O)[C@@H]2O)[C@H](O)[C@@H](O)[C@H]1Cl [Sample 39]: −0.02
OC[C@H]1O[C@H](O[C@]2(CCl)O[C@H](CCl)[C@@H](O)[C@@H]2O)[C@H](O)[C@@H](O)[C@H]1Cl [Sample 44]: −0.18
OC[C@H]1O[C@H](O[C@]2(CCl)O[C@H](CCl)[C@@H](O)[C@@H]2O)[C@H](O)[C@@H](O)[C@H]1Cl [Sample 34]: −1.03

a = OC[C@H]1O[C@H](O[C@]2(CCl)O[C@H](CCl)[C@@H](O)[C@@H]2O)[C@H](O)[C@@H](O)[C@H]1Cl [Sample 37]
b = OC[C@H]1O[C@H](O[C@]2(CCl)O[C@H](CCl)[C@@H](O)[C@@H]2O)[C@H](O)[C@@H](O)[C@H]1Cl [Sample 33]
Min Initial pH difference? a | b Field: selected label. Fill in the label of the entry you choose.
b
(b: −0.94, a: −0.06)

====

# assay_name: Accelerated stability test (50° C.) with pH stability test of sucralose sample solution
# Type: physicochemical
# test_parameters: 50° C.; final dried product; Example 3
quantity_measured: Days to pH Failure (Final Product Moisture Content) (Days)

OC[C@H]1O[C@H](O[C@]2(CCl)O[C@H](CCl)[C@@H](O)[C@@H]2O)[C@H](O)[C@@H](O)[C@H]1Cl [Sample 42]: 5
OC[C@H]1O[C@H](O[C@]2(CCl)O[C@H](CCl)[C@@H](O)[C@@H]2O)[C@H](O)[C@@H](O)[C@H]1Cl [Sample 43]: 5
OC[C@H]1O[C@H](O[C@]2(CCl)O[C@H](CCl)[C@@H](O)[C@@H]2O)[C@H](O)[C@@H](O)[C@H]1Cl [Sample 35]: 5
OC[C@H]1O[C@H](O[C@]2(CCl)O[C@H](CCl)[C@@H](O)[C@@H]2O)[C@H](O)[C@@H](O)[C@H]1Cl [Sample 38]: 6
OC[C@H]1O[C@H](O[C@]2(CCl)O[C@H](CCl)[C@@H](O)[C@@H]2O)[C@H](O)[C@@H](O)[C@H]1Cl [Sample 39]: 7
OC[C@H]1O[C@H](O[C@]2(CCl)O[C@H](CCl)[C@@H](O)[C@@H]2O)[C@H](O)[C@@H](O)[C@H]1Cl [Sample 36]: 5
OC[C@H]1O[C@H](O[C@]2(CCl)O[C@H](CCl)[C@@H](O)[C@@H]2O)[C@H](O)[C@@H](O)[C@H]1Cl [Sample 41]: 5
OC[C@H]1O[C@H](O[C@]2(CCl)O[C@H](CCl)[C@@H](O)[C@@H]2O)[C@H](O)[C@@H](O)[C@H]1Cl [Sample 37]: 5
OC[C@H]1O[C@H](O[C@]2(CCl)O[C@H](CCl)[C@@H](O)[C@@H]2O)[C@H](O)[C@@H](O)[C@H]1Cl [Sample 40]: 7

====

# assay_name: Accelerated stability test (50° C.) with pH stability test of sucralose sample solution
# Type: physicochemical
# test_parameters: sample solution (5 g in 50 ml pH-adjusted water) at time zero; Example 1, sodium acetate in mother liquor varied
quantity_measured: Initial pH

OC[C@H]1O[C@H](O[C@]2(CCl)O[C@H](CCl)[C@@H](O)[C@@H]2O)[C@H](O)[C@@H](O)[C@H]1Cl [Sample 31]: 6.03
OC[C@H]1O[C@H](O[C@]2(CCl)O[C@H](CCl)[C@@H](O)[C@@H]2O)[C@H](O)[C@@H](O)[C@H]1Cl [Sample 17]: 6.03
OC[C@H]1O[C@H](O[C@]2(CCl)O[C@H](CCl)[C@@H](O)[C@@H]2O)[C@H](O)[C@@H](O)[C@H]1Cl [Sample 4]: 5.64

====

# assay_name: Accelerated stability test (50° C.) with pH stability test of sucralose sample solution
# Assay type: physicochemical
# test_parameters: sample solution (5 g in 50 ml pH-adjusted water) at time zero; Example 1, sodium acetate in mother liquor varied
quantity_measured: Initial pH

OC[C@H]1O[C@H](O[C@]2(CCl)O[C@H](CCl)[C@@H](O)[C@@H]2O)[C@H](O)[C@@H](O)[C@H]1Cl [Sample 9]: 6.19
OC[C@H]1O[C@H](O[C@]2(CCl)O[C@H](CCl)[C@@H](O)[C@@H]2O)[C@H](O)[C@@H](O)[C@H]1Cl [Sample 11]: 6.05
OC[C@H]1O[C@H](O[C@]2(CCl)O[C@H](CCl)[C@@H](O)[C@@H]2O)[C@H](O)[C@@H](O)[C@H]1Cl [Sample 29]: 6.09
OC[C@H]1O[C@H](O[C@]2(CCl)O[C@H](CCl)[C@@H](O)[C@@H]2O)[C@H](O)[C@@H](O)[C@H]1Cl [Sample 24]: 6.02
OC[C@H]1O[C@H](O[C@]2(CCl)O[C@H](CCl)[C@@H](O)[C@@H]2O)[C@H](O)[C@@H](O)[C@H]1Cl [Sample 28]: 6.00
OC[C@H]1O[C@H](O[C@]2(CCl)O[C@H](CCl)[C@@H](O)[C@@H]2O)[C@H](O)[C@@H](O)[C@H]1Cl [Sample 21]: 6.05

====

# assay_name: Accelerated stability test (50° C.) with pH stability test of sucralose sample solution
# Assay type: physicochemical
# test_parameters: 50° C., WHIRLPAK polyethylene bags; failure = pH drop ≧1.0; Example 2, pH at crystallizer varied
# Method: Label seven 6 oz. and seven 18 oz. WHIRLPAK® polyethylene bags with indelible marker for each batch being tested for stability. Accurately weigh 25 g±0.01 g of sucralose into each 6 oz. WHIRLPAK® polyethylene bag. Heat or impulse seal the 6 oz. bag to ensure air tightness. Cut off any excess polyethylene at the top of the bag above the seal. […] Place approximately 100 ml of deionized water into a 150 ml beaker. […] Record the pH reading. […]
quantity_measured: Days to pH Failure (Days)

a = OC[C@H]1O[C@H](O[C@]2(CCl)O[C@H](CCl)[C@@H](O)[C@@H]2O)[C@H](O)[C@@H](O)[C@H]1Cl [Sample 46]
b = OC[C@H]1O[C@H](O[C@]2(CCl)O[C@H](CCl)[C@@H](O)[C@@H]2O)[C@H](O)[C@@H](O)[C@H]1Cl [Sample 32]
Which gives the smaller Days to pH Failure number: a or b ? Kindly state the label of the option you pick.
b
(b: 3 Days, a: 7 Days)

====

# assay_name: Accelerated stability test (50° C.) with pH stability test of sucralose sample solution
# Assay type: physicochemical
# test_parameters: 50° C.; partially dried product at intermediate (initial) moisture content; Example 3
quantity_measured: Days to pH Failure (Initial Moisture Content) (Days)

OC[C@H]1O[C@H](O[C@]2(CCl)O[C@H](CCl)[C@@H](O)[C@@H]2O)[C@H](O)[C@@H](O)[C@H]1Cl [Sample 37]: 21

A = OC[C@H]1O[C@H](O[C@]2(CCl)O[C@H](CCl)[C@@H](O)[C@@H]2O)[C@H](O)[C@@H](O)[C@H]1Cl [Sample 39]
B = OC[C@H]1O[C@H](O[C@]2(CCl)O[C@H](CCl)[C@@H](O)[C@@H]2O)[C@H](O)[C@@H](O)[C@H]1Cl [Sample 36]
Param pair: A , B . Output: the one whose Days to pH Failure (Initial Moisture Content) is numerically greater. Respond using the label that marks the chosen record.
A
(A: 13 Days, B: 7 Days)

Attribution: patent US8017767B2
